Answer each item with its documented kinase still bound, per cent of control.
- TARGET OF ASSAY: UniProt Q8NE63
- Sequence (Q8NE63 whole entry, looked up): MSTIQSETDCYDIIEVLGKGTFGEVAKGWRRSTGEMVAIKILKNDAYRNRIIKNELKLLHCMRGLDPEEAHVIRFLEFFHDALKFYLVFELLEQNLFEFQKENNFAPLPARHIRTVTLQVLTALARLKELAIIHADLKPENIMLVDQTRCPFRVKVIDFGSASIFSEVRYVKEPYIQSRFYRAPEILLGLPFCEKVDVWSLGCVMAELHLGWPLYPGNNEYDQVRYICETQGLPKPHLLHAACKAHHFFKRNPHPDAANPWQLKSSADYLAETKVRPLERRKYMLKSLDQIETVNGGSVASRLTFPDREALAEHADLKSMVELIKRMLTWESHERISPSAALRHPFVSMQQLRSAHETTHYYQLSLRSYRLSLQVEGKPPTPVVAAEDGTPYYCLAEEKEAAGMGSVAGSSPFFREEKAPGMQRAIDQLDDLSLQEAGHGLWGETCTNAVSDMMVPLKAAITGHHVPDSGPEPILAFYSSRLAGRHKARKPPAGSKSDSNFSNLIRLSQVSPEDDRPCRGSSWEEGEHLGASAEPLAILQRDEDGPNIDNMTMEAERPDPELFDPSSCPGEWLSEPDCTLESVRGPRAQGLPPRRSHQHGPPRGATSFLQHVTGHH
- PROCEDURE DETAILS: KINOMEscan competition binding
- CONDITION CONTEXT: compound 10.0 µM
Your answer is read as %, so omit the unit and give the number.

Tell me the measured kinase still bound, per cent of control of N#CCNC(=O)c1ccc(-c2ccnc(Nc3ccc(N4CCOCC4)cc3)n2)cc1 , please. 12

Item under review: C=CC(=O)Nc1cc(-n2c(=O)ccc3cnc4ccc(-c5cn[nH]c5)cc4c32)ccc1C . Reported kinase still bound, per cent of control? 51

Please report the recorded kinase still bound, per cent of control for CCN1CCN(C(=O)Cc2ccc(Nc3ncc(F)c(Nc4ccc(C(=O)Nc5ccccc5Cl)cc4)n3)cc2)CC1 . 2.4

# get_value(readout='kinase still bound, per cent of control', item= COc1cc2ncn(-c3cc(OCc4ccccc4C(F)(F)F)c(C(N)=O)s3)c2cc1OC ) 15

Please look up its kinase still bound, per cent of control: C[C@@H](Oc1cc(-c2cnn(C3CCNCC3)c2)cnc1N)c1c(Cl)ccc(F)c1Cl 15

* * *

- TARGET OF ASSAY: DYRK1B (human)
- PROCEDURE DETAILS: KINOMEscan competition binding
- CONDITION CONTEXT: compound 10.0 µM
Each record's kinase still bound, per cent of control is compared with Low (below 40%), Medium (40% to below 90%), High (90% or more) to give its class.

Category of O=C(Nc1cccc(Nc2ncc(Br)c(NCCc3cnc[nH]3)n2)c1)N1CCCC1 : Low

Which kinase still bound, per cent of control band matches CS(=O)(=O)N1CCN(Cc2cc3nc(-c4cccc5[nH]ncc45)nc(N4CCOCC4)c3s2)CC1 ? High

Hi there! Could you help me figure out the category for O=C1NC(=O)/C(=C/c2ccc3nccc(-c4ccncc4)c3c2)S1 please? Low

Textbook exercise: identify the category of the compound given here, O=c1cc(N2CCOCC2)oc2c(-c3cccc4c3sc3ccccc34)cccc12 , according to its measured value. Medium

Hi, small favor: classify CNC(=O)c1ccc(Nc2cc(Nc3ccccc3S(=O)(=O)C(C)C)c3cc[nH]c3n2)nc1 by its kinase still bound, per cent of control when you get a moment. Low

Which class is correct for the following compound? NC(=O)Nc1cc(-c2cccc(F)c2)sc1C(=O)N[C@@H]1CCCNC1 Low

Returns: class label. Input: COc1ccc(N(C(=O)Oc2c(C)cccc2C)c2ccnc(Nc3ccc(N4CCN(C)CC4)cc3)n2)c(OC)c1 Medium

Which category does the recorded kinase still bound, per cent of control put COc1cc(N2CCN(C)CC2)ccc1Nc1ncc2c(n1)N(C)c1ccccc1C(=O)N2C in? High

Form field 'band' for CCN(CC)CCCCNc1ncc2c(n1)N(C)C(=O)N(c1c(Cl)c(OC)cc(OC)c1Cl)C2 High

Just checking, what class would you give CN(C)C/C=C/C(=O)Nc1ccc(C(=O)Nc2cccc(Nc3nccc(-c4cccnc4)n3)c2)cc1 here? Low

Class label required: Cc1n[nH]c2ccc(-c3cncc(OC[C@@H](N)Cc4c[nH]c5ccccc45)c3)cc12 Low

Pick a category. Item: C[C@@H](Oc1cc(-c2cnn(C3CCNCC3)c2)cnc1N)c1c(Cl)ccc(F)c1Cl Medium

Into which category would you place CCN(CC)CCCCNc1ncc2cc(-c3cc(OC)cc(OC)c3)c(NC(=O)NC(C)(C)C)nc2n1 ? High

Class (by measured kinase still bound, per cent of control) for COc1cc2ncn(-c3cc(OCc4ccccc4C(F)(F)F)c(C(N)=O)s3)c2cc1OC Medium

Record CCN1CCN(C(=O)Cc2ccc(Nc3ncc(F)c(Nc4ccc(C(=O)Nc5ccccc5Cl)cc4)n3)cc2)CC1 — which class? Medium

* * *

- TARGET OF ASSAY: UniProt:O15111
- Sequence (O15111 whole entry, looked up): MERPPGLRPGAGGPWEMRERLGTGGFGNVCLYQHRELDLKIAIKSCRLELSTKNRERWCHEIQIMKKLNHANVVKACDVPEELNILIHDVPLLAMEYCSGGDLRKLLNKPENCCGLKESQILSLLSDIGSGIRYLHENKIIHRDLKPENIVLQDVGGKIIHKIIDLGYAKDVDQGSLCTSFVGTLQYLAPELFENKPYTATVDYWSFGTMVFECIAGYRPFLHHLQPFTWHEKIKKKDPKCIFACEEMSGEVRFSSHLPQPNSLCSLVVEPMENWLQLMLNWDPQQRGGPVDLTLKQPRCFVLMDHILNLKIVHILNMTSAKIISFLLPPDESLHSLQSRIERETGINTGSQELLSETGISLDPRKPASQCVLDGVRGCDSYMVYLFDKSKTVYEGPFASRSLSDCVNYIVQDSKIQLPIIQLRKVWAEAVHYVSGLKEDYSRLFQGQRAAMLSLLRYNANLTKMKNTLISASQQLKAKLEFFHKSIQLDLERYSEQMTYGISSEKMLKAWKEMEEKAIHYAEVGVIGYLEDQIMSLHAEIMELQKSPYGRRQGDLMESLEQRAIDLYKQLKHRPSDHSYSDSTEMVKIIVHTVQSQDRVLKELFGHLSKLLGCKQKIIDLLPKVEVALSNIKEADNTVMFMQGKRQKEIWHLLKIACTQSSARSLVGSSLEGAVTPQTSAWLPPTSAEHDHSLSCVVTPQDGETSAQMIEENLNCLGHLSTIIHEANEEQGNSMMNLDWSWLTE
- PROCEDURE DETAILS: KINOMEscan competition binding
- CONDITION CONTEXT: compound 10.0 µM
ASSAY METRIC: kinase still bound, per cent of control (%)
Kindly answer with a numeric value in %, unit omitted.

What kinase still bound, per cent of control value was documented for this compound, NC(=O)Nc1cc(-c2cccc(F)c2)sc1C(=O)N[C@@H]1CCCNC1 ? 0

Give its kinase still bound, per cent of control value. Item: COc1cc2ncn(-c3cc(OCc4ccccc4C(F)(F)F)c(C(N)=O)s3)c2cc1OC 86

Returns the measured kinase still bound, per cent of control for the input compound. Input: COc1cc(C(=O)N2CCC(N3CCN(C)CC3)CC2)ccc1Nc1ncc2c(n1)N(C)c1ccccc1C(=O)N2C 100

Need kinase still bound, per cent of control, item C=CC(=O)Nc1cc(-n2c(=O)ccc3cnc4ccc(-c5cn[nH]c5)cc4c32)ccc1C 100

For N#CCNC(=O)c1ccc(-c2ccnc(Nc3ccc(N4CCOCC4)cc3)n2)cc1 , what is its reported kinase still bound, per cent of control? 0

Requested read-out: kinase still bound, per cent of control. Entry: COCC(=O)NC/C=C/c1ccc2ncnc(Nc3ccc(Oc4ccc(C)nc4)c(C)c3)c2c1 100

Request the reported kinase still bound, per cent of control associated with CNC(=O)c1ccc(Nc2cc(Nc3ccccc3S(=O)(=O)C(C)C)c3cc[nH]c3n2)nc1 100

Find the recorded kinase still bound, per cent of control belonging to CCN(CC)CCCCNc1ncc2c(n1)N(C)C(=O)N(c1c(Cl)c(OC)cc(OC)c1Cl)C2 and report it. 100

Given the compound C[C@@H](Oc1cc(-c2cnn(C3CCNCC3)c2)cnc1N)c1c(Cl)ccc(F)c1Cl , what is its reported kinase still bound, per cent of control? 100

* * *

Give kinase still bound, per cent of control for every item shown.
- TARGET OF ASSAY: MAPK14 (human)
- PROCEDURE DETAILS: KINOMEscan competition binding
- CONDITION CONTEXT: compound 10.0 µM
Value expressed in %; do not type the unit.

Field request: kinase still bound, per cent of control | item: COc1cc(N2CCN(C)CC2)ccc1Nc1ncc2c(n1)N(C)c1ccccc1C(=O)N2C 100

Endpoint output: kinase still bound, per cent of control of CN(C)C/C=C/C(=O)Nc1ccc(C(=O)Nc2cccc(Nc3nccc(-c4cccnc4)n3)c2)cc1 . Value? 99

May I ask what kinase still bound, per cent of control has been recorded for O=C(Nc1cccc(Nc2ncc(Br)c(NCCc3cnc[nH]3)n2)c1)N1CCCC1 ? 100

Given the entry N#CCNC(=O)c1ccc(-c2ccnc(Nc3ccc(N4CCOCC4)cc3)n2)cc1 , report its measured kinase still bound, per cent of control. 100

* * *

- TARGET OF ASSAY: TEK (human) (UniProt Q02763)
- Sequence (Q02763 whole entry, looked up): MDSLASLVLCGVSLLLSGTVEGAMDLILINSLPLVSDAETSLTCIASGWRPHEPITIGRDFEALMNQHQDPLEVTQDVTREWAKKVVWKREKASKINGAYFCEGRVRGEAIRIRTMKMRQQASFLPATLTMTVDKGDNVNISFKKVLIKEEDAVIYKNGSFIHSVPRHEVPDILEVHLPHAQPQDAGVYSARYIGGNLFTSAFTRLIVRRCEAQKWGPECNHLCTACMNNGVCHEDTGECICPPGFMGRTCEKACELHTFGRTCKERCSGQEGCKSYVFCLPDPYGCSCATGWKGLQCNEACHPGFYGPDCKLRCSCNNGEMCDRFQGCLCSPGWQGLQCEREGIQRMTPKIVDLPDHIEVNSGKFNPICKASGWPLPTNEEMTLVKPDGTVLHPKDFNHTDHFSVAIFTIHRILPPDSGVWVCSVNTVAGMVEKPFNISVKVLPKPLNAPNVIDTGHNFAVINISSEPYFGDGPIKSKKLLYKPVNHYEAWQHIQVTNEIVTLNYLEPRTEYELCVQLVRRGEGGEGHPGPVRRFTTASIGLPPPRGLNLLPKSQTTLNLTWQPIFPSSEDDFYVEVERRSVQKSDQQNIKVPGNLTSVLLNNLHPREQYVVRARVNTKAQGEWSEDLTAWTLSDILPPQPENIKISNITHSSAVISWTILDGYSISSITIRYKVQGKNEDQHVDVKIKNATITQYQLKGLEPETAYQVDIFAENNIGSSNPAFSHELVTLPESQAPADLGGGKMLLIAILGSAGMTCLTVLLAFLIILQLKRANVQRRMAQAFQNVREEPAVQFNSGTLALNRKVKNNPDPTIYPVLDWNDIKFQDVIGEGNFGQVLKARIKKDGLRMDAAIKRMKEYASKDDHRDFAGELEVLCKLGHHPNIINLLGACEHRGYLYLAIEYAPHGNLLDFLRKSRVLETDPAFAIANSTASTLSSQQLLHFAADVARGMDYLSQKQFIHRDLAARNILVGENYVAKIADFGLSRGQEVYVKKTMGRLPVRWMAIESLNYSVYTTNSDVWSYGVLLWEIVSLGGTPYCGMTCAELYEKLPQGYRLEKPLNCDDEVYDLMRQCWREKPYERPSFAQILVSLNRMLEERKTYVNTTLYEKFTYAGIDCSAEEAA
- PROCEDURE DETAILS: KINOMEscan competition binding
- CONDITION CONTEXT: compound 10.0 µM
ASSAY METRIC: kinase still bound, per cent of control (%)
Output spec: scalar in %, unitless text.

I would be grateful if you could share the reported kinase still bound, per cent of control for CN(C)C/C=C/C(=O)Nc1ccc(C(=O)Nc2cccc(Nc3nccc(-c4cccnc4)n3)c2)cc1 . 94

Given the compound NC(=O)Nc1cc(-c2cccc(F)c2)sc1C(=O)N[C@@H]1CCCNC1 , what is its reported kinase still bound, per cent of control? 17

Query: kinase still bound, per cent of control; subject: C[C@@H](Oc1cc(-c2cnn(C3CCNCC3)c2)cnc1N)c1c(Cl)ccc(F)c1Cl 1

Record request: kinase still bound, per cent of control value, item COc1ccc(N(C(=O)Oc2c(C)cccc2C)c2ccnc(Nc3ccc(N4CCN(C)CC4)cc3)n2)c(OC)c1 0.3

kinase still bound, per cent of control for CNC(=O)c1ccc(Nc2cc(Nc3ccccc3S(=O)(=O)C(C)C)c3cc[nH]c3n2)nc1 ? 1.8

Requested field: kinase still bound, per cent of control. Item: COc1cc(C(=O)N2CCC(N3CCN(C)CC3)CC2)ccc1Nc1ncc2c(n1)N(C)c1ccccc1C(=O)N2C 100

Give its kinase still bound, per cent of control value. Item: N#CCNC(=O)c1ccc(-c2ccnc(Nc3ccc(N4CCOCC4)cc3)n2)cc1 100

Form field: reported kinase still bound, per cent of control of C=CC(=O)Nc1ccc(CN(C(=O)Nc2c(Cl)c(OC)cc(OC)c2Cl)c2cc(Nc3ccc(N4CCN(C)CC4)cc3)ncn2)cc1 0.95

Given the compound Cc1n[nH]c2ccc(-c3cncc(OC[C@@H](N)Cc4c[nH]c5ccccc45)c3)cc12 , what is its reported kinase still bound, per cent of control? 100

Can you look up the measured kinase still bound, per cent of control of O=C1NC(=O)/C(=C/c2ccc3nccc(-c4ccncc4)c3c2)S1 for me? 98

# get_value(readout='kinase still bound, per cent of control', item= O=c1cc(N2CCOCC2)oc2c(-c3cccc4c3sc3ccccc34)cccc12 ) 100

Requested read-out: kinase still bound, per cent of control. Entry: CCN(CC)CCCCNc1ncc2c(n1)N(C)C(=O)N(c1c(Cl)c(OC)cc(OC)c1Cl)C2 100

Record request: kinase still bound, per cent of control value, item C=CC(=O)Nc1cc(-n2c(=O)ccc3cnc4ccc(-c5cn[nH]c5)cc4c32)ccc1C 100

Need kinase still bound, per cent of control of CCN(CC)CCCCNc1ncc2cc(-c3cc(OC)cc(OC)c3)c(NC(=O)NC(C)(C)C)nc2n1 , thanks. 100

For the compound shown here, COc1cc(N2CCN(C)CC2)ccc1Nc1ncc2c(n1)N(C)c1ccccc1C(=O)N2C , give the reported kinase still bound, per cent of control. 100

Looking for the measured kinase still bound, per cent of control of CCN1CCN(C(=O)Cc2ccc(Nc3ncc(F)c(Nc4ccc(C(=O)Nc5ccccc5Cl)cc4)n3)cc2)CC1 , can you help? 48

Record request: kinase still bound, per cent of control value, item CS(=O)(=O)N1CCN(Cc2cc3nc(-c4cccc5[nH]ncc45)nc(N4CCOCC4)c3s2)CC1 100

# input compound: COc1cc2ncn(-c3cc(OCc4ccccc4C(F)(F)F)c(C(N)=O)s3)c2cc1OC ; wanted: its kinase still bound, per cent of control 57

Find the recorded kinase still bound, per cent of control belonging to COc1cc2ncnc(-n3nc(-c4ccccn4)nc3N)c2cc1OC and report it. 45

So what's the measured kinase still bound, per cent of control for this one? COCC(=O)NC/C=C/c1ccc2ncnc(Nc3ccc(Oc4ccc(C)nc4)c(C)c3)c2c1 100

I would be grateful if you could share the reported kinase still bound, per cent of control for O=C(Nc1cccc(Nc2ncc(Br)c(NCCc3cnc[nH]3)n2)c1)N1CCCC1 . 12
